# target_of_assay: human TLR7 (Homo sapiens)
# Sequence (Q9NYK1 27-1049): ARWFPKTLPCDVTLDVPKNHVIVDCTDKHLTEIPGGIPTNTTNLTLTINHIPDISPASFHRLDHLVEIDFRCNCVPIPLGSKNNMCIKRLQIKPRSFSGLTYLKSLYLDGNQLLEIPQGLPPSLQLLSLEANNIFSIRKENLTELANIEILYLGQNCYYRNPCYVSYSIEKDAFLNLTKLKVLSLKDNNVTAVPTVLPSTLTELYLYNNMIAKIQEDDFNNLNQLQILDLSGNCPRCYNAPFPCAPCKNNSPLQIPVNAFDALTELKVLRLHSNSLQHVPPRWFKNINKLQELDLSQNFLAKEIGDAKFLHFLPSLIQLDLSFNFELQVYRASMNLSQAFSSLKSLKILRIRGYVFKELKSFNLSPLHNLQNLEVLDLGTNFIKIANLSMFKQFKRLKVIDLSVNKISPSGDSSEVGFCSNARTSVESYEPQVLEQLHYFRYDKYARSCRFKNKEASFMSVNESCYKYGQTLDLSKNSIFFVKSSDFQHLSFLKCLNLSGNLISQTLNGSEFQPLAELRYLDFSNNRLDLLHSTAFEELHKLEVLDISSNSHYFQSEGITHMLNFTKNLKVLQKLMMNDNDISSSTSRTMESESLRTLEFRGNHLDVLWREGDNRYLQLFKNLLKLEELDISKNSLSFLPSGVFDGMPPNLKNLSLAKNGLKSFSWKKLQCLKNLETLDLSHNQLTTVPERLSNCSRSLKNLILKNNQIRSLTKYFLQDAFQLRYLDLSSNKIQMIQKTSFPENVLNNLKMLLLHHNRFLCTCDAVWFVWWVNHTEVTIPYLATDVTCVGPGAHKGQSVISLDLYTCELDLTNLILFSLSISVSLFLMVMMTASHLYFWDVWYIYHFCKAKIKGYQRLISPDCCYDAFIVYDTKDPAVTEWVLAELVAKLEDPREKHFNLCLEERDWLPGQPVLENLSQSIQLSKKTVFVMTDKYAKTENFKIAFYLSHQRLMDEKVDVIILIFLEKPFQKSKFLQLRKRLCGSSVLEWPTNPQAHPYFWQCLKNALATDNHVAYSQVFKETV
# test_details: TLR7 inhibition reporter assay (HEK-Blue cells, SEAP reporter, gardiquimod stimulation)
# experimental_conditions: HEK-Blue cells overexpressing human TLR7, SEAP reporter, gardiquimod 7.5 μM

{"columns": ["chemical_string", "target_of_assay", "IC50"],
 "data": [
  ["CNC(=O)CN1CCC(c2ccc3[nH]c(-c4nn5ncnc5c(C)c4C)c(C(C)C)c3c2)CC1", "human TLR7 (Homo sapiens)", "< 100 nM"],
  ["CC(C)c1c(-c2ccc3nncn3n2)[nH]c2ccc(C3CCNCC3)cc12", "human TLR7 (Homo sapiens)", "100 to 1000 nM"],
  ["Cc1c(-c2[nH]c3ccc(C4CCN(CC(=O)N(C)C)CC4)cc3c2C(C)C)cn2ccnc2c1Cl", "human TLR7 (Homo sapiens)", "< 100 nM"],
  ["Cc1cc(-c2[nH]c3ccc(C4CCNCC4)cc3c2C(C)C)cc2c(C(=O)N(C)C)cnn12", "human TLR7 (Homo sapiens)", "100 to 1000 nM"],
  ["CC(C)c1c(-c2cnc3cnccn23)[nH]c2ccc(C3CCNCC3)cc12", "human TLR7 (Homo sapiens)", "1000 to 50000 nM"],
  ["CNC(=O)c1cn2cc(-c3[nH]c4ccc(C5CCN(C(=O)CN(C)C)CC5)cc4c3C(C)C)cc(C)c2n1", "human TLR7 (Homo sapiens)", "< 100 nM"],
  ["COc1cc(-c2[nH]c3ccc(C4CCN(C5COC5)CC4)cc3c2C(C)C)cc2ncnn12", "human TLR7 (Homo sapiens)", "< 100 nM"],
  ["Cc1cnc2ccc(-c3[nH]c4ccc(C5CCN(C(=O)CN(C)C)CC5)cc4c3C(C)C)cn12", "human TLR7 (Homo sapiens)", "100 to 1000 nM"],
  ["Cc1nc2c(-c3[nH]c4ccc(C5CCN(CC(C)(C)O)CC5)cc4c3C(C)C)ccc(C)n2n1", "human TLR7 (Homo sapiens)", "> 3130 nM"],
  ["Cc1cc(-c2[nH]c3ccc(C4CCN(C5CCS(=O)(=O)CC5)CC4)cc3c2C(C)C)cc2cccnc12", "human TLR7 (Homo sapiens)", "< 100 nM"]
]}

###

Listing of entries alongside the reported IC50.
# target_of_assay: human TLR8 (Homo sapiens)
# test_details: TLR8 inhibition reporter assay (HEK-Blue cells, SEAP reporter, R848 stimulation)
# experimental_conditions: HEK-Blue cells overexpressing human TLR8, SEAP reporter, R848 15.9 μM

{"columns": ["chemical_string", "IC50"],
 "data": [
  ["Cc1cc2nnnn2cc1-c1[nH]c2ccc(C3CCN(C4CCS(=O)(=O)CC4)CC3)cc2c1C(C)C", "< 100 nM"],
  ["CC(C)c1c(-c2c[nH]c3cccnc23)[nH]c2ccc(C3CCNCC3)cc12", "1000 to 50000 nM"],
  ["CC(C)c1c(-c2ccnc3[nH]ncc23)[nH]c2ccc(C3CCN(Cc4ccc(OCCCN(C)C)cc4)CC3)cc12", "< 100 nM"],
  ["CNC(=O)CN1CCC(c2ccc3[nH]c(-c4ccc(C)n5nc(C)nc45)c(C(C)C)c3c2)CC1", "100 to 1000 nM"],
  ["CC(C)c1c(-c2cc(C(C)(C)O)c3nccn3c2)[nH]c2ccc(C3CCN(CC(=O)N(C)C)CC3)cc12", "100 to 1000 nM"],
  ["Cc1cc(-c2[nH]c3ccc(C4CCN(CC(=O)N(C)C)CC4)cc3c2C(C)C)cc2ncnn12", "< 100 nM"],
  ["CC(C)N1CCC(c2ccc3[nH]c(-c4ccc5nccn5c4)c(CC(F)F)c3c2)CC1", "100 to 1000 nM"],
  ["Cc1cc(-c2[nH]c3ccc(C4CCN(C(=O)CN(C)C)CC4)cc3c2C(C)C)c(C)n2nnnc12", "< 100 nM"],
  ["COc1cc(-c2[nH]c3ccc(C4CCN(CC(=O)N(C)C)CC4)cc3c2C(C)C)cc2nccn12", "100 to 1000 nM"],
  ["Cc1nc2c(C)cc(-c3[nH]c4ccc(C5CCN(CC(=O)N(C)C)CC5)cc4c3C(C)C)cn2c1C", "100 to 1000 nM"],
  ["CCc1c[nH]c2nccc(-c3[nH]c4ccc(C5CCNCC5)cc4c3C(C)C)c12", "< 100 nM"],
  ["Cc1c(-c2[nH]c3ccc(C4CCNCC4)cc3c2C(C)C)cn2nnnc2c1C", "< 100 nM"],
  ["CC(C)c1c(-c2ccnc3[nH]ncc23)[nH]c2ccc(C3CCN(Cc4c[nH]cn4)CC3)cc12", "< 100 nM"]
]}

###

# target_of_assay: human TLR8 (Homo sapiens, UniProt Q9NR97)
# Sequence (Q9NR97 27-1041): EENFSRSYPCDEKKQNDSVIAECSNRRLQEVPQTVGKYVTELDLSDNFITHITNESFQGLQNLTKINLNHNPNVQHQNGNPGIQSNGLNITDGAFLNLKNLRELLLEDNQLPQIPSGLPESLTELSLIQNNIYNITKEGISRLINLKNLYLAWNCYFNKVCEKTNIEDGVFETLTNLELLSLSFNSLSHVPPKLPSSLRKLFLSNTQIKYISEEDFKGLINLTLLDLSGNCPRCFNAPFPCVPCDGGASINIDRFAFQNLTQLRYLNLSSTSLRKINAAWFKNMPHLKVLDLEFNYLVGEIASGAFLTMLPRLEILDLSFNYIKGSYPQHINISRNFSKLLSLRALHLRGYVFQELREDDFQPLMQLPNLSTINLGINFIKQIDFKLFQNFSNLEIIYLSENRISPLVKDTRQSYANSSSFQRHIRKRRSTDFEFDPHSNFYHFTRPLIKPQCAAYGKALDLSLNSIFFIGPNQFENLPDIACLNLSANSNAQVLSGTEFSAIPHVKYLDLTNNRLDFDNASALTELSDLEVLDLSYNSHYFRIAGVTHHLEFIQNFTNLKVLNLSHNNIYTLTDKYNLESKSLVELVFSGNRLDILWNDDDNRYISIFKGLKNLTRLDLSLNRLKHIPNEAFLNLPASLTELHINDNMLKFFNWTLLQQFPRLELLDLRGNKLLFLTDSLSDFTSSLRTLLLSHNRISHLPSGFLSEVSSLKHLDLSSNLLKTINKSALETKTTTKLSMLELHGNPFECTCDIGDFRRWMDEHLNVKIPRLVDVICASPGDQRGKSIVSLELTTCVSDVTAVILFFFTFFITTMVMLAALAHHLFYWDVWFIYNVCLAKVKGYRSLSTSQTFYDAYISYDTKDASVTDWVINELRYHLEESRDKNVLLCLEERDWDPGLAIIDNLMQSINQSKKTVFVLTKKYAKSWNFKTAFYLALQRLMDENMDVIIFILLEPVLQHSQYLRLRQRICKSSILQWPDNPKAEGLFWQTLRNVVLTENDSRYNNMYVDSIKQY
# test_details: TLR8 inhibition reporter assay (HEK-Blue cells, SEAP reporter, R848 stimulation)
# experimental_conditions: HEK-Blue cells overexpressing human TLR8, SEAP reporter, R848 15.9 μM
pIC50: −log10 of the molar value.
// pIC50 lookup, one value per entry

{"columns": ["compound", "pIC50"],
 "data": [
  ["CC(C)c1c(-c2ccn3cnnc3c2)[nH]c2ccc(C3CCN(C4CCOCC4)CC3)cc12 [Example 697]", "6.00 to 7.00"],
  ["CC(C)c1c(-c2ccnc3[nH]ncc23)[nH]c2ccc(C3CCN(Cc4ccccc4OCCCN(C)C)CC3)cc12 [Example 921]", "> 7.00"],
  ["CN(C)C(=O)CN1CCC(c2ccc3[nH]c(-c4cc(F)c5nccn5c4)c(CC(F)F)c3c2)CC1 [Example 409]", "6.00 to 7.00"],
  ["CCc1c(-c2ccnc3[nH]cc(Cl)c23)[nH]c2ccc(C3CCN(C4CCN(C(C)C)CC4)CC3)cc12 [Example 842]", "> 7.00"],
  ["CC(C)c1c(-c2cnc3c(cnn3C)c2)[nH]c2ccc(C3CCN(CC(C)(C)O)CC3)cc12 [Example 764]", "> 7.00"],
  ["CC(C)c1c(-c2ccnc3[nH]cc(O)c23)[nH]c2ccc(C3CCNCC3)cc12 [Example 216]", "6.00 to 7.00"],
  ["Cc1cc(-c2[nH]c3ccc(C4CCN(C5COC5)CC4)cc3c2C(C)C)cc2ncnn12 [Example 727]", "> 7.00"],
  ["CC(C)c1c(-c2ccnc3[nH]ncc23)[nH]c2cc(F)c(C3CCN(C4CCN(C(C)C)CC4)CC3)cc12 [Example 830]", "> 7.00"],
  ["CC(=O)NCCNCC(=O)N1CCC(c2ccc3[nH]c(-c4ccnc5[nH]ncc45)c(C(C)C)c3c2)CC1 [Example 573]", "> 7.00"]
]}
